# System: Human immunodeficiency virus 1
# assay-explanation: Antiviral activity against HIV1 3B infected in human MT4 cells assessed as inhibition of virus induced cytopathic effect after 5 days by MTT assay
# Type: functional, organism-based
# measurement-conditions: Human immunodeficiency virus 1, 3B, MT4, 120 h
Recorded pEC50, one value per entry.
Hey, just a heads up that pEC50 is the negative log base 10 of the concentration in molar.

compound	pEC50
CC1CCCCN1CCCNCc1ccc(CNCCCN2CCCCC2C)cc1 (centres undefined)	7.71
CC(C)CN(CCC[C@H](NC(=O)c1ccc(CNCc2ncc[nH]2)cc1)C(=O)N[C@@H](C)c1cccc2ccccc12)CC(C)C	8.17
CC1CCCCN1CCCNCc1ccc(CN2CCCNCCNCCCNCC2)cc1 (centres undefined)	7.36

The compound c1cc(CN2CCCNCCNCCCNCC2)ccc1CNCCCN1CCOCC1 showed pEC50 equal to 6.87
